Molecular target: ADRA2A (Homo sapiens)
Assay: Mini-profiling panel, GPCR
Assay type: cell-based
pIC50: −log10 of the molar value.
recordedEndpoint: pIC50

Query string: What value of pIC50 has been reported for the following molecule? `Cn1cnc2c(=O)n(-c3cccnc3C3CC3)c3cc(Cl)ccc3c21`
Result string: < 5.00

###

Target: HTR2A (Homo sapiens)
Sequence (P28223 whole entry): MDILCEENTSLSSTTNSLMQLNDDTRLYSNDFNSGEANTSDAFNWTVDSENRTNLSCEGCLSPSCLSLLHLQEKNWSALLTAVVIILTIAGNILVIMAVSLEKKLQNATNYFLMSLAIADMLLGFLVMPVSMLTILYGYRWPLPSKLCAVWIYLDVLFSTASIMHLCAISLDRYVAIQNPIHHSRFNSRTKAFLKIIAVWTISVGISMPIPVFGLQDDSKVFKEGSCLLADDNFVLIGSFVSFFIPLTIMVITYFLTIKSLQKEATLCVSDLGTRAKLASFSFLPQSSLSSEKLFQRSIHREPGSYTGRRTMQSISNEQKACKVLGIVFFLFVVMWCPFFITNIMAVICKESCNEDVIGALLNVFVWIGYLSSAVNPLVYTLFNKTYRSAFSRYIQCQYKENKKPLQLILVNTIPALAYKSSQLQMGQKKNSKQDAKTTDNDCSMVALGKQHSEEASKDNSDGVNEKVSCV
Experiment: Mini-profiling panel, GPCR
pIC50: −log10 of the molar value.
recordedEndpoint: pIC50

Query string: Return reported pIC50; argument: Cn1cnc2c(=O)n(-c3cccnc3C3CC3)c3cc(Cl)ccc3c21 [SCR‐7952]
Result string: < 5.00

###

Biological target: ADRA2A (Homo sapiens)
Sequence (P08913 1-465): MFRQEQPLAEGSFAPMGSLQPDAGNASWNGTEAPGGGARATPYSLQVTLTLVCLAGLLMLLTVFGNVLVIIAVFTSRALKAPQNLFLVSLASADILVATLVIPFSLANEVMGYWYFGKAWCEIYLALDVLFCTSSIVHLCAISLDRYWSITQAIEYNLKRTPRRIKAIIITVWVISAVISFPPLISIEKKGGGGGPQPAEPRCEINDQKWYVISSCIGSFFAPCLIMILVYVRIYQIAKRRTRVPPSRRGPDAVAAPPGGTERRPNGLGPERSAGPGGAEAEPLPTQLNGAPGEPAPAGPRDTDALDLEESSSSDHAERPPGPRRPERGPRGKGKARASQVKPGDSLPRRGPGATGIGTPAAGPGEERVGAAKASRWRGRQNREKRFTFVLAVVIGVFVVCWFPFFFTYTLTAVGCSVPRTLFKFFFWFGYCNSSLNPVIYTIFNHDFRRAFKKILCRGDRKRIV
Assay: Mini-profiling panel, GPCR
Type: cell-based
recordedEndpoint: EC50

Query string: # EC50 lookup, item `Cn1cnc2c(=O)n(-c3cccnc3C3CC3)c3cc(Cl)ccc3c21`
Result string: > 10 µM

###

Target: HTR1A (Homo sapiens)
Sequence (P08908 whole entry, species assumed): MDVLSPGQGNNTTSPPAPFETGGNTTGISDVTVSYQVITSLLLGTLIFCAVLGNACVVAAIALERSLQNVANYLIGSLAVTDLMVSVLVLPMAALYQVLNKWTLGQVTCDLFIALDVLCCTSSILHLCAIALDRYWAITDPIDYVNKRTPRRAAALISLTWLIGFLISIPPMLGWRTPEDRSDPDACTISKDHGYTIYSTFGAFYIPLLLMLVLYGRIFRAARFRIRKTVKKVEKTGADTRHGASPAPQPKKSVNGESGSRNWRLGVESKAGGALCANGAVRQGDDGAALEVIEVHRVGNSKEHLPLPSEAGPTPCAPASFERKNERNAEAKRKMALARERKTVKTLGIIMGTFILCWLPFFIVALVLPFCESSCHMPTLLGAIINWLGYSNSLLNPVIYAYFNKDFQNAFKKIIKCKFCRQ
Test: Mini-profiling panel, GPCR
recordedEndpoint: EC50

Query string: # input compound: `Cn1cnc2c(=O)n(-c3cccnc3C3CC3)c3cc(Cl)ccc3c21` ; wanted: its EC50
Result string: > 10 µM

###

Target: UniProtKB P41145
Sequence (P41145 whole entry, species assumed): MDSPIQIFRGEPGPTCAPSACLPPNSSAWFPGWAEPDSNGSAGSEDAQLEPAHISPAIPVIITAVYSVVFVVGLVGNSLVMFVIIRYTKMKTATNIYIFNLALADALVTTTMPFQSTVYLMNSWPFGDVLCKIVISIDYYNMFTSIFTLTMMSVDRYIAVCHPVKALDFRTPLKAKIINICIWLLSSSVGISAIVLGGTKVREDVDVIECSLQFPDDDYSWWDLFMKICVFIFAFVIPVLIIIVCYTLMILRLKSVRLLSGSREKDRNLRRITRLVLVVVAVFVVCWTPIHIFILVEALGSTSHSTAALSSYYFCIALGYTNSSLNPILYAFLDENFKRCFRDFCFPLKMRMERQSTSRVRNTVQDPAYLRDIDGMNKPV
Assay: Mini-profiling panel, GPCR
Assay type: cell-based
recordedEndpoint: IC50

Query string: Item: Cn1cnc2c(=O)n(-c3cccnc3C3CC3)c3cc(Cl)ccc3c21 [SCR‐7952] Test system: UniProtKB P41145 Read-out: IC50 Value: ?
Result string: > 10 µM

###

Tested on: A549
Experiment: Proliferation assay (CellTiter-Glo)
Format: cell-based
Conditions: Homo sapiens, A549, 144 h; MTAP-deleted, 6-day; read-out: IC50, anti-proliferation A549
Listed here: items and their measured pIC50.
Hey, just a heads up that pIC50 is the negative log base 10 of the concentration in molar.

- molecule: "Cn1cnc2c(=O)n(-c3cccnc3C3CC3)c3cc(Cl)ccc3c21"
  recordedEndpoint: "pIC50"
  recordedNumber: 6.91

Query string: Provide the documented pIC50 with A549 as the system for COc1ccc(-c2c(Nc3ccccn3)[nH]c3c(C4=CCCCC4)c(-c4ccccc4)nn3c2=O)cc1 [AG‐270, reference compound]
Result string: 6.19

###

Target: HTR2A (Homo sapiens)
Assay: Mini-profiling panel, GPCR
recordedEndpoint: EC50

Query string: # EC50 lookup, item `Cn1cnc2c(=O)n(-c3cccnc3C3CC3)c3cc(Cl)ccc3c21`
Result string: > 10 µM

All figures here come from paper PMC11413503.
